B1: Caulobacter ParB omega fusion; a variant is named by its letters at X, in order, B8GW30 (parent)
chain: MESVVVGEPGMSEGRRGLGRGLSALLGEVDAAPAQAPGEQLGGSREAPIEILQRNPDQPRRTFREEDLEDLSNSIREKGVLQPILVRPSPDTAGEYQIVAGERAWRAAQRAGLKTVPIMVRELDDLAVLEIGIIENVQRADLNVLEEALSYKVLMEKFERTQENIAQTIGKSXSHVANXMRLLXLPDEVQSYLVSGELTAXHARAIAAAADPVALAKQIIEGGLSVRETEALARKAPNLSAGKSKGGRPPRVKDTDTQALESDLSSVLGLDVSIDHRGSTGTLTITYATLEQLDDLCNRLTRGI

- Variants of: B1
- assay.protocol: one-hybrid fitness for binding NBS DNA (the Noc-binding site; scaled: cognate 1, non-cognate 0); higher = stronger binding
- recorded.conditions: with NBS DNA site
Whole data set: some 81,000 sequences, median “one-hybrid fitness for binding NBS DNA” near -0.1, cut for the highest 2% near 0.36. What follows is part of a selection rich in the highest values, with near analogues and random picks from the rest.
Where one-hybrid fitness for binding NBS DNA equals or exceeds 0.4, the correct label is Y; where it does not, the label is N.

Some solved entries appear below for comparison.
mutant.id: RRTH
classification: Y
//
mutant.id: RLKD
classification: N
//
mutant.id: QKVV
classification: N
//
mutant.id: QQAR
classification: Y
//
mutant.id: RHKS
classification: Y

Is the recorded value of one-hybrid fitness for binding NBS DNA equal to or greater than 0.4 for this variant? QQHR Y

Thanks! And RFKN ? N

Thanks! And QKCV ? N

Thanks! And RFKS ? Y

Thanks! And RHKN ? N

Thanks! And QRVV ? N

Value source: a collection of fitness landscapes (doi:10.1016/j.celrep.2020.107928)
